# System: BICR78 (Oral Cavity Carcinoma);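 note: after 72 h of two-drug dosing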
# Procedure Summary: Bliss excess, mean over the matrix (fraction); higher = more synergy
The reader will find reported Bliss excess values listed item by item below.

Given CN(C)CCCOc1ccc(-c2ccc3ncc4c(c3c2)n(C2CCOCC2)c(=O)n4C)cn1 [AZD0156] + C[C@@H]1COCCN1C2=NC(=NC(=C2)C3(CC3)[S@](=N)(=O)C)C4=C5C=CNC5=NC=C4 [AZD6738] (first compound max 1 µM, 7x7, partner max 10 µM) , state its recorded Bliss excess. 0.0119

Now give it for CC(=O)c1c(C)c2cnc(Nc3ccc(N4CCNCC4)cn3)nc2n(C2CCCC2)c1=O [Palbociclib] + Cn1cnc2c(F)c(Nc3ccc(Br)cc3Cl)c(C(=O)NOCCO)cc21 [Selumetinib] (first compound max 10 µM, 7x7, partner max 10 µM) too. 0.0133

Follow-up entry: N#Cc1cnc(Nc2cc(NC[C@H]3CNCCO3)c(C(F)(F)F)cn2)cn1 [SRA737] + C=CCn1c(=O)c2cnc(Nc3ccc(N4CCN(C)CC4)cc3)nc2n1-c1cccc(C(C)(C)O)n1 [AZD1775] (first compound max 10 µM, partner max 1 µM) -0.0326

Input CN(CCO)CC[C@H](CSc1ccccc1)Nc1ccc(S(=O)(=O)NC(=O)c2ccc(N3CCC([C@@H](O)c4ccccc4-c4ccc(Cl)cc4)CC3)cc2)cc1S(=O)(=O)C(F)(F)F [AZD4320] + CN(C)CCCOc1ccc(-c2ccc3ncc4c(c3c2)n(C2CCOCC2)c(=O)n4C)cn1 [AZD0156] (first compound max 1 µM, 7x7, partner max 1 µM) -0.0268

###

# Tested on: H4 (Low Grade Glioma)
# Procedure Summary: combination Emax (second highest fraction inhibited in the dose matrix, 72 h); higher = more inhibition; extreme values may be limits of the assay
Parameter: combination Emax. Scope: all listed entries.

A selection of reference data follows.
CN(CCO)CC[C@H](CSc1ccccc1)Nc1ccc(S(=O)(=O)NC(=O)c2ccc(N3CCC([C@@H](O)c4ccccc4-c4ccc(Cl)cc4)CC3)cc2)cc1S(=O)(=O)C(F)(F)F [AZD4320] + Nc1ccn([C@@H]2O[C@H](CO)[C@@H](O)C2(F)F)c(=O)n1 [Gemcitabine] (first compound max 1 µM, 7x7, partner max 0.3 µM)	0.988
CC1(C)CCC(CN2CCN(c3ccc(C(=O)NS(=O)(=O)c4ccc(NCC5CCOCC5)c([N+](=O)[O-])c4)c(Oc4cnc5[nH]ccc5c4)c3)CC2)=C(c2ccc(Cl)cc2)C1 [Venetoclax] + C=CCn1c(=O)c2cnc(Nc3ccc(N4CCN(C)CC4)cc3)nc2n1-c1cccc(C(C)(C)O)n1 [AZD1775] (first compound max 1 µM, partner max 1 µM)	0.85
C[C@@H](c1ccc2nccn2c1)n1nnc2ncc(-c3cnn(C)c3)nc21 [Savolitinib] + CC1(C)CCC(CN2CCN(c3ccc(C(=O)NS(=O)(=O)c4ccc(NCC5CCOCC5)c([N+](=O)[O-])c4)c(Oc4cnc5[nH]ccc5c4)c3)CC2)=C(c2ccc(Cl)cc2)C1 [Venetoclax] (first compound max 1 µM, 7x7, partner max 1 µM)	0.218
CCc1c2c(nc3ccc(O)cc13)-c1cc3c(c(=O)n1C2)COC(=O)[C@]3(O)CC [SN-38] + O=C(c1cc(Cc2n[nH]c(=O)c3ccccc23)ccc1F)N1CCN(C(=O)C2CC2)CC1 [Olaparib] (first compound max 0.3 µM, 7x7, partner max 10 µM)	0.938
CS(=O)(=O)CCNCc1ccc(-c2ccc3ncnc(Nc4ccc(OCc5cccc(F)c5)c(Cl)c4)c3c2)o1 [Lapatinib] + Cn1cnc2c(F)c(Nc3ccc(Br)cc3Cl)c(C(=O)NOCCO)cc21 [Selumetinib] (first compound max 10 µM, 7x7, partner max 10 µM)	0.27

Alright, here's another compound for you.
Which measured combination Emax belongs to Cc1cc2ncnn2cc1Nc1ncc2c(n1)n(C1CCOCC1)c(=O)n2C [AZD7648] + O=C(c1cc(Cc2n[nH]c(=O)c3ccccc23)ccc1F)N1CCN(C(=O)C2CC2)CC1 [Olaparib] (first compound max 10 µM, 7x7, partner max 10 µM) , tested on H4 (Low Grade Glioma)? 0.585
